Please go through the items and note down their cytotoxicity at 10 µM.
TEST_SUMMARY: Toxicity liver stage against HepG2, at 10uM
Type: cell-based
Set-up: test concentration 10 uM, cell line HepG2-A16-CD81EGFP
CONDITION_LABEL: human, HepG2-A16-CD81EGFP cells; read-out: INHIBITION
Numbers only, in %.

Take a look at these entries with their results.
>>> reported_measurement("CN(c1cccnc1N1CCCC1)S(=O)(=O)c1cccnc1")
0.981
>>> reported_measurement("c1cnc(N2CCC(c3csc(Nc4cnccn4)n3)CC2)nc1")
34

Look up cytotoxicity at 10 µM for the entries below, preserving their order.
1. NC(=O)CN1CCC2(CC1)CC(=O)c1ccc3ccccc3c1O2
2. CN(C)C1CCN(C(=O)c2cc3c(s2)CCN3C(=O)C2CC2)CC1
3. O=C(c1ccno1)N1CCC2(CC(=O)N(c3ccc4c(c3)OCO4)C2)C1 (stereo unspecified)
4. CCC1CN(C)c2ccccc2CN1C(=O)Nc1cccc(F)c1 (stereo unspecified)

Key:
1: 1.76; 2: 9.61; 3: 9.82; 4: 5.9

Measured values drawn from ChEMBL document CHEMBL4513216 for this set.
